test system: eIF2α in HEK293-EGFP-eIF2α cells; assay: PERK Cellular Assay (HEK293-EGFP-eIF2α cells, tunicamycin-induced ER stress, TR-FRET); format: cell-based; conditions: tunicamycin 2 hours
Measured IC50 by item

{"Compound": "[2H]C([2H])([2H])c1nc(-c2ccc(NC(=O)C(O)c3cc(F)cc(C(F)(F)F)c3)cc2F)c2c(N)ncc(C)n12 (centres unmarked) [Example 111]", "Subject of test": "eIF2α in HEK293-EGFP-eIF2α cells", "IC50": "26 to 50 nM"}
{"Compound": "Cc1cnc(N)c2c(-c3ccc(NC(=O)C(O)c4cccc(F)c4)cc3)nc(C)n12 (centres unmarked) [Example 69]", "Subject of test": "eIF2α in HEK293-EGFP-eIF2α cells", "IC50": "1 to 25 nM"}
{"Compound": "Cc1cnc(N)c2c(-c3ccc(NC(=O)C(O)c4cccc(F)c4)c(F)c3)nc(C)n12 (centres unmarked) [Example 125]", "Subject of test": "eIF2α in HEK293-EGFP-eIF2α cells", "IC50": "1 to 25 nM"}
{"Compound": "Cc1cnc(N)c2c(-c3ccc(NC(=O)C(O)c4cccc(C(F)(F)F)c4)cc3F)nc(C)n12 (centres unmarked) [Example 92]", "Subject of test": "eIF2α in HEK293-EGFP-eIF2α cells", "IC50": "1 to 25 nM"}
{"Compound": "[2H]C([2H])([2H])c1nc(-c2ccc(NC(=O)C(O)c3cc(F)cc(C(F)(F)F)c3)cc2C)c2c(N)ncc(C(F)(F)F)n12 (centres unmarked) [Example 61]", "Subject of test": "eIF2α in HEK293-EGFP-eIF2α cells", "IC50": "251 to 500 nM"}
{"Compound": "Cc1cc(NC(=O)C(O)c2cccc(F)c2)ccc1-c1nc(C)n2c(C(F)(F)F)cnc(N)c12 (centres unmarked) [Example 26]", "Subject of test": "eIF2α in HEK293-EGFP-eIF2α cells", "IC50": "26 to 50 nM"}
{"Compound": "[2H]C([2H])([2H])c1nc(-c2ccc(NC(=O)C(O)c3cc(F)cc(C(F)(F)F)c3)cc2F)c2c(N)ncc(Cl)n12 (centres unmarked) [Example 115]", "Subject of test": "eIF2α in HEK293-EGFP-eIF2α cells", "IC50": "26 to 50 nM"}
{"Compound": "[2H]C([2H])([2H])c1nc(-c2ccc(NC(=O)C(O)c3cccc(Cl)c3)cc2C)c2c(N)nc(C)cn12 (centres unmarked) [Example 34]", "Subject of test": "eIF2α in HEK293-EGFP-eIF2α cells", "IC50": "26 to 50 nM"}
{"Compound": "[2H]C([2H])([2H])c1nc(-c2ccc(NC(=O)C(O)c3cccc(Cl)c3)c(F)c2F)c2c(N)ncc(C)n12 (centres unmarked) [Example 139]", "Subject of test": "eIF2α in HEK293-EGFP-eIF2α cells", "IC50": "101 to 250 nM"}
{"Compound": "[2H]C([2H])([2H])c1nc(-c2ccc(NC(=O)C(O)c3cccc(F)c3)cc2F)c2c(N)ncc(C(F)(F)F)n12 (centres unmarked) [Example 76]", "Subject of test": "eIF2α in HEK293-EGFP-eIF2α cells", "IC50": "1 to 25 nM"}
{"Compound": "Cc1cccc(C(O)C(=O)Nc2ccc(-c3nc(C)n4c(C)cnc(N)c34)c(F)c2)c1 (centres unmarked) [Example 89]", "Subject of test": "eIF2α in HEK293-EGFP-eIF2α cells", "IC50": "51 to 100 nM"}
{"Compound": "[2H]C([2H])([2H])c1nc(-c2ccc(NC(=O)C(O)c3cc(F)cc(F)c3)cc2C)c2c(N)ncc(C)n12 (centres unmarked) [Example 51]", "Subject of test": "eIF2α in HEK293-EGFP-eIF2α cells", "IC50": "51 to 100 nM"}
{"Compound": "Cc1cn2c(C)nc(-c3ccc(NC(=O)C(O)c4cccc(F)c4)c(F)c3)c2c(N)n1 (centres unmarked) [Example 119]", "Subject of test": "eIF2α in HEK293-EGFP-eIF2α cells", "IC50": "26 to 50 nM"}
{"Compound": "[2H]C([2H])([2H])c1nc(-c2ccc(NC(=O)C(O)c3cccc(C(F)(F)F)c3)cc2F)c2c(N)ncc(Cl)n12 (centres unmarked)", "Subject of test": "eIF2α in HEK293-EGFP-eIF2α cells", "IC50": "1 to 25 nM"}

---

system: eIF2α in HEK293-EGFP-eIF2α cells; test: PERK Cellular Assay (HEK293-EGFP-eIF2α cells, tunicamycin-induced ER stress, TR-FRET); type: cell-based; settings: tunicamycin 2 hours
Readout type: IC50

{"Compound": "[2H]C([2H])([2H])c1nc(-c2ccc(NC(=O)C(O)c3cccc(C(F)(F)F)c3)nc2C)c2c(N)ncc(C)n12 (stereo not drawn) [Example 175]", "Readout type": "IC50", "Result": "101 to 250 nM"}
{"Compound": "[2H]C([2H])([2H])c1nc(-c2ccc(NC(=O)C(O)c3cccc(Cl)c3)cc2C)c2c(N)nc(C)cn12 (stereo not drawn) [Example 35]", "Readout type": "IC50", "Result": "1000 to 2000 nM"}
{"Compound": "[2H]C([2H])([2H])c1nc(-c2ccc(NC(=O)C(O)c3cccc(C)c3)cc2F)c2c(N)ncc(C)n12 (stereo not drawn) [Example 91]", "Readout type": "IC50", "Result": "51 to 100 nM"}
{"Compound": "[2H]C([2H])([2H])c1nc(-c2ccc(NC(=O)C(O)c3cccc(C(F)(F)F)c3)cc2C)c2c(N)ncc(C(F)(F)F)n12 (stereo not drawn) [Example 20]", "Readout type": "IC50", "Result": "26 to 50 nM"}
{"Compound": "[2H]C([2H])([2H])c1nc(-c2ccc(NC(=O)C(O)c3cc(F)cc(C(F)(F)F)c3)cc2F)c2c(N)ncc(C(F)(F)F)n12 (stereo not drawn) [Example 112]", "Readout type": "IC50", "Result": "1 to 25 nM"}
{"Compound": "[2H]C([2H])([2H])c1nc(-c2ccc(NC(=O)C(O)c3cccc(F)c3)cc2F)c2c(N)ncc(Cl)n12 (stereo not drawn) [Example 75]", "Readout type": "IC50", "Result": "26 to 50 nM"}
{"Compound": "[2H]C([2H])([2H])c1nc(-c2ccc(NC(=O)C(O)c3cccc(C(F)(F)F)c3)c(F)c2F)c2c(N)nc(C)cn12 (stereo not drawn) [Example 150]", "Readout type": "IC50", "Result": "26 to 50 nM"}
{"Compound": "Cc1cc(NC(=O)C(O)c2cccc(F)c2)c(F)cc1-c1nc(C)n2c(C)cnc(N)c12 (stereo not drawn) [Example 65]", "Readout type": "IC50", "Result": "1 to 25 nM"}
{"Compound": "[2H]C([2H])([2H])c1nc(-c2ccc(NC(=O)C(O)c3cccc(C(F)(F)F)c3)cc2C)c2c(N)nc(C)cn12 (stereo not drawn) [Example 15]", "Readout type": "IC50", "Result": "251 to 500 nM"}
{"Compound": "[2H]C([2H])([2H])c1nc(-c2ccc(NC(=O)C(O)c3cccc(C(F)(F)F)c3)cc2F)c2c(N)ncc(C(F)(F)F)n12 (stereo not drawn) [Example 98]", "Readout type": "IC50", "Result": "26 to 50 nM"}
{"Compound": "[2H]C([2H])([2H])c1nc(-c2ccc(NC(=O)C(O)c3cccc(F)c3)c(F)c2F)c2c(N)ncc(C(F)(F)F)n12 (stereo not drawn) [Example 134]", "Readout type": "IC50", "Result": "1 to 25 nM"}
{"Compound": "[2H]C([2H])([2H])c1nc(-c2ccc(NC(=O)C(O)c3cccc(F)c3)c(F)c2F)c2c(N)nc(C)cn12 (stereo not drawn) [Example 131]", "Readout type": "IC50", "Result": "3000 to 4000 nM"}
{"Compound": "Cc1cc(NC(=O)C(O)c2cccc(F)c2)ccc1-c1nc(C)n2ccnc(N)c12 (stereo not drawn) [Example 1]", "Readout type": "IC50", "Result": "26 to 50 nM"}
{"Compound": "[2H]C([2H])([2H])c1nc(-c2ccc(NC(=O)C(O)c3cccc(F)c3)c(F)c2)c2c(N)ncc(C)n12 (stereo not drawn) [Example 122]", "Readout type": "IC50", "Result": "251 to 500 nM"}
{"Compound": "[2H]C([2H])([2H])c1nc(-c2ccc(NC(=O)C(O)c3cc(F)cc(C(F)(F)F)c3)cc2F)c2c(N)ncc(Cl)n12 (stereo not drawn) [Example 114]", "Readout type": "IC50", "Result": "1 to 25 nM"}
{"Compound": "[2H]C([2H])([2H])c1nc(-c2ccc(NC(=O)C(O)c3cccc(F)c3)nc2C)c2c(N)nc(C)cn12 (stereo not drawn) [Example 171]", "Readout type": "IC50", "Result": "> 5000 nM"}
{"Compound": "[2H]C([2H])([2H])c1nc(-c2ccc(NC(=O)C(O)c3cccc(Cl)c3)cc2C)c2c(N)ncc(C)n12 (stereo not drawn) [Example 36]", "Readout type": "IC50", "Result": "1 to 25 nM"}
{"Compound": "[2H]C([2H])([2H])c1nc(-c2ccc(NC(=O)C(O)c3cccc(Cl)c3)c(F)c2F)c2c(N)ncc(C)n12 (stereo not drawn) [Example 138]", "Readout type": "IC50", "Result": "1 to 25 nM"}
{"Compound": "[2H]C([2H])([2H])c1nc(-c2ccc(NC(=O)C(O)c3cc(F)cc(C(F)(F)F)c3)c(F)c2F)c2c(N)ncc(C(F)(F)F)n12 (stereo not drawn) [Example 163]", "Readout type": "IC50", "Result": "251 to 500 nM"}
{"Compound": "[2H]C([2H])([2H])c1nc(-c2ccc(NC(=O)C(O)c3cccc(C(F)(F)F)c3)cc2F)c2c(N)ncc(C(F)(F)F)n12 (stereo not drawn) [Example 99]", "Readout type": "IC50", "Result": "101 to 250 nM"}
{"Compound": "[2H]C([2H])([2H])c1nc(-c2ccc(NC(=O)C(O)c3cccc(Cl)c3)c(F)c2F)c2c(N)ncc(Cl)n12 (stereo not drawn) [Example 145]", "Readout type": "IC50", "Result": "1 to 25 nM"}
{"Compound": "[2H]C([2H])([2H])c1nc(-c2ccc(NC(=O)C(O)c3cc(F)cc(C(F)(F)F)c3)c(F)c2F)c2c(N)ncc(C(F)(F)F)n12 (stereo not drawn) [Example 162]", "Readout type": "IC50", "Result": "1 to 25 nM"}
{"Compound": "Cc1cccc(C(O)C(=O)Nc2ccc(-c3nc(C)n4c(C)cnc(N)c34)c(F)c2)c1 (stereo not drawn) [Example 88]", "Readout type": "IC50", "Result": "1 to 25 nM"}
{"Compound": "Cc1cc(NC(=O)C(O)c2cccc(F)c2)ccc1-c1nc(C)n2c(C(F)(F)F)cnc(N)c12 (stereo not drawn) [Example 27]", "Readout type": "IC50", "Result": "251 to 500 nM"}
{"Compound": "Cc1cc(NC(=O)C(O)c2cccc(F)c2)ccc1-c1nc(C)n2c(C)cnc(N)c12 (stereo not drawn) [Example 9]", "Readout type": "IC50", "Result": "251 to 500 nM"}
{"Compound": "Cc1cn2c(C)nc(-c3ccc(NC(=O)C(O)c4cccc(F)c4)cc3C)c2c(N)n1 (single isomer, unassigned) [Example 3]", "Readout type": "IC50", "Result": "26 to 50 nM"}
{"Compound": "[2H]C([2H])([2H])c1nc(-c2ccc(NC(=O)C(O)c3cc(F)cc(F)c3)cc2C)c2c(N)ncc(C(F)(F)F)n12 (stereo not drawn) [Example 47]", "Readout type": "IC50", "Result": "101 to 250 nM"}

Origin of values: patent US12331054B2
